Cited source: patent US4845102A

test system: stress-induced gastric ulcer; experiment: Protective effect on gastric ulcer induced by restraint plus water-immersion stress in rats; format: in vivo, Male Sprague-Dawley rats; conditions: Table 3 (efficacy comparison), 10 mg/kg po
Measured Inhibition of individual entries
ENDPOINT_NAME: Inhibition

>>> reported_measurement("CC(=O)CCCCn1c(=O)c2c(ncn2C)n(C)c1=O [Pentoxifylline, reference compound]")
"12.7%"
>>> reported_measurement("CCn1cnc2c1c(=O)n(CCCCC(C)=O)c(=O)n2C")
"77.2%"
>>> reported_measurement("CCCn1cnc2c1c(=O)n(CCCCC(C)=O)c(=O)n2C")
"56.3%"
>>> reported_measurement("CCCn1cnc2c1c(=O)n(CCCC(C)=O)c(=O)n2C")
"67.0%"
